Details: in sec-butanol, 293.15 K
measured-endpoint: solubility (mole fraction)
Number, no unit, nothing else.

# query: solubility (mole fraction) of entry Cc1c(C(=O)O)cc([N+](=O)[O-])cc1[N+](=O)[O-] 0.0134

* * *

Conditions: in n-butanol, 293.15 K
measured-endpoint: solubility (mole fraction)
Number, no unit, nothing else.

# query: solubility (mole fraction) of entry Cc1c(C(=O)O)cc([N+](=O)[O-])cc1[N+](=O)[O-] 0.0129

* * *

Conditions: in n-propanol, 298.15 K
measured-endpoint: solubility (mole fraction)
Number, no unit, nothing else.

# query: solubility (mole fraction) of entry Cc1c(C(=O)O)cc([N+](=O)[O-])cc1[N+](=O)[O-] 0.0169

* * *

Settings: in toluene, 333.15 K
measured-endpoint: solubility (mole fraction)
Number, no unit, nothing else.

# query: solubility (mole fraction) of entry Cc1c(C(=O)O)cc([N+](=O)[O-])cc1[N+](=O)[O-] 0.0628

* * *

Settings: in sec-butanol, 333.15 K
measured-endpoint: solubility (mole fraction)
Number, no unit, nothing else.

# query: solubility (mole fraction) of entry Cc1c(C(=O)O)cc([N+](=O)[O-])cc1[N+](=O)[O-] 0.0467

* * *

Details: in ethanol, 313.15 K
measured-endpoint: solubility (mole fraction)
Number, no unit, nothing else.

# query: solubility (mole fraction) of entry Cc1c(C(=O)O)cc([N+](=O)[O-])cc1[N+](=O)[O-] 0.0882

* * *

Details: in n-pentanol, 303.15 K
measured-endpoint: solubility (mole fraction)
Number, no unit, nothing else.

# query: solubility (mole fraction) of entry Cc1c(C(=O)O)cc([N+](=O)[O-])cc1[N+](=O)[O-] 0.0193

* * *

Conditions: in ethyl acetate, 303.15 K
measured-endpoint: solubility (mole fraction)
Number, no unit, nothing else.

# query: solubility (mole fraction) of entry Cc1c(C(=O)O)cc([N+](=O)[O-])cc1[N+](=O)[O-] 0.0359

* * *

Conditions: in cyclohexane, 303.15 K
measured-endpoint: solubility (mole fraction)
Number, no unit, nothing else.

# query: solubility (mole fraction) of entry Cc1c(C(=O)O)cc([N+](=O)[O-])cc1[N+](=O)[O-] 3.64e-05

* * *

Conditions: in n-propanol, 308.15 K
measured-endpoint: solubility (mole fraction)
Number, no unit, nothing else.

# query: solubility (mole fraction) of entry Cc1c(C(=O)O)cc([N+](=O)[O-])cc1[N+](=O)[O-] 0.0239
